Target: neutrophil collagenase (MMP-8) (Homo sapiens, UniProt P22894)
Construct: enzymatic activity of the catalytic domains of human stromelysin and of neutrophil collagenase
Sequence (P22894 100-262 limits assumed): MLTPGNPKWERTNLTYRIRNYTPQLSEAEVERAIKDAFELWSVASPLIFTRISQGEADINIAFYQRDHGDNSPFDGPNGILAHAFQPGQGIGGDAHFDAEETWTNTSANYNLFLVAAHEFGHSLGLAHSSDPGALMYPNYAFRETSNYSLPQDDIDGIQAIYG
Test: Enzymatic activity of the catalytic domain of neutrophil collagenase (fluorogenic substrate)
Conditions: pH=6.5, 15 min preincubation, fluorescence 328 nm (ex)/393 nm (em), read-out: Neutr. collagenase IC50
In this section we review reported IC50 values for a set of compounds.
API: value field is a number in nM; no unit string.

What value of measured IC50 is listed for O=C(O)[C@H](CO)NS(=O)(=O)c1ccc(Oc2ccccc2)cc1 [Example 8] ? 10

Same thing, different compound: CP(=O)(O)CC[C@H](NS(=O)(=O)c1ccc(-c2ccc(Cl)cc2)cc1)C(=O)O [Example 104] 5

Same thing, different compound: O=C(O)CCCC(NS(=O)(=O)c1ccc(-c2ccccc2)cc1)C(=O)O (racemic) [Example 82] 10

Same thing, different compound: O=C(CC[C@H](NS(=O)(=O)c1ccc(-c2ccccc2)cc1)C(=O)O)N[C@@H](Cc1ccccc1)C(=O)O [Example 92] 4
